Test system: PC-3 prostate
Experiment: NCI-60 one-dose screen, 48 h
Conditions: 10 µM unless noted
Procedure: Growth inhibition of the PC-3 human tumor cell line is measured as a screen for anti-cancer activity. Cells are grown in 96 well plates and exposed to the test compound for 48 hours. Compounds are tested at a single concentration, which is 10^-5 M for most compounds. The reported endpoint is percent growth (GI% or GIPRCNT), where numbers from 0 - 100% represent growth inhibition, and numbers from -100% - 0 represent cell death. For example, a value of 40 represents 60% growth inhibition. […]
About 83,000 compounds went through this panel and 20% of them were active in at least one assay; those are over-represented in the sample as a whole. Calls of active or inactive are those of the source. Rule for the calls: active = growth percent below 10; inactive = the rest.
The reply should name one outcome from label 1 for active, label 0 for inactive

Some entries whose results are on file:
Compound	Study system	Assigned label
CCOC(=O)C1=C(C)N2C(=NC3=C(CCCC/C3=C\c3cc(OC)c(OC)c(OC)c3)C2c2cc(OC)c(OC)c(OC)c2)S1 (stereo unspecified)	PC-3 prostate	label 0
O=[N+]([O-])c1cc2c(cc1Br)C1C(C3C2C(Cl)(Cl)C(Cl)=C(Cl)C3(Cl)Cl)C(Cl)(Cl)C(Cl)=C(Cl)C1(Cl)Cl (stereo unspecified)	PC-3 prostate	label 0
COC(=O)c1c2c(c(C)[n+]([O-])c1C)C(=O)C=C(NCc1cccc(Cl)c1)C2=O	PC-3 prostate	label 1
COc1cc(/C=C/c2cc(/C=C/c3ccc(O)c(OC)c3)n(-c3ccccc3)n2)ccc1O	PC-3 prostate	label 1
Fc1c[c-]c(-c2ccccn2)c(F)c1.Fc1c[c-]c(-c2ccccn2)c(F)c1.[Cl][Pt+].[Cl][Pt+].c1ccc([PH+](C[PH+](c2ccccc2)c2ccccc2)c2ccccc2)cc1	PC-3 prostate	label 0

For this compound, state the assay outcome: `Cc1oc2c(c1C(=O)N1CC[C@@H](N)C1)C(=O)c1c(c(O)c3ccccc3c1O)C2=O`
label 0

Then what about the compound `CCSc1nnc2c3cc(Br)ccc3n(C)c2n1` ?
label 0

Check `C[C@@H](Oc1cc(-c2cnn(C3CC4(CNC4)C3)c2)cnc1N)c1c(Cl)ccc(F)c1Cl` too.
label 0

Next up: `COc1ccc(Nc2[nH]n(C3=Nc4ccccc4Sc4ccccc43)c(=O)c2C#N)cc1`
label 0

Let us now turn to `COc1ccc(C(=O)C2=CC(=O)C(=O)C2)cc1OC`
label 0

---

system: SR leukemia; assay: NCI-60 one-dose screen, 48 h (100 = growth as untreated, 0 = no growth, -100 = all killed); conditions: 10 µM unless noted
Compounds without any hit were thinned out: in the full panel of roughly 83,000, 20% have a hit.
Output schema: class label derived from growth. Mapping: one (below 20%), two (20% to below 80%), three (80% or more)

The examples below pair each entry with its known result.
Structure	Assigned label
COc1ccc(NS(=O)(=O)c2ccc(-c3cnc(C4CC4)o3)cc2)cc1	two
COc1ccc(/C=C2\SC(=O)N(CN3CCN(c4cc5c(cc4F)c(=O)c(C(=O)O)cn5C4CC4)CC3)C2=O)cc1	three
Oc1cccc(Nc2nc(-c3ccccn3)cs2)c1	three

Consider the additional compound presented here.
Which class holds `O=c1[nH]c(=S)[nH]c(=O)n1Cc1cccc2ccccc12` ?
three

---

System: SNB-75 CNS
Test: NCI-60 one-dose screen, 48 h (100 = growth as untreated, 0 = no growth, -100 = all killed)
Conditions: 10 µM unless noted
Protocol: Growth inhibition of the SNB-75 human tumor cell line is measured as a screen for anti-cancer activity. Cells are grown in 96 well plates and exposed to the test compound for 48 hours. Compounds are tested at a single concentration, which is 10^-5 M for most compounds. The reported endpoint is percent growth (GI% or GIPRCNT), where numbers from 0 - 100% represent growth inhibition, and numbers from -100% - 0 represent cell death. For example, a value of 40 represents 60% growth inhibition. […]
Compounds without any hit were thinned out: in the full panel of roughly 83,000, 20% have a hit.
Simple rule here: growth less than 90% is y, otherwise n.

Consider the following illustrative entries.
Molecule	Study system	Assigned label
COc1nc2c(cc1S(=O)(=O)c1ccccc1)CCc1c-2cnn1-c1ccccc1Cl	SNB-75 CNS	y
Cn1c2ccccc2c2nn(C(=O)c3ccccc3)c(=O)nc21	SNB-75 CNS	n
Nc1cc(Br)c(-c2nnc(CCC(=O)c3nc4ccccc4[nH]3)o2)c(Br)c1	SNB-75 CNS	y

Please determine if CC1SC(c2ccc(Cl)cc2)N(CCc2cccs2)C1=O (configuration not stated) is below 90% in terms of growth.
y

Now consider `O=C(Nc1nc2ccccc2[nH]1)C(=O)Nc1nc2ccccc2[nH]1` .
n

`CSc1nnc(-c2sc3nnc(-c4ccccc4)c(-c4ccccc4)c3c2O)o1` , same question.
y

Field entry: `O=S(=O)(Nc1ncccn1)c1ccc(Nc2ccc3nnc(-c4ccncc4)n3n2)cc1`
y

Note, next up: `COc1ccc(-c2c3c(N)c4c(nc3nc3c2c(C)nn3-c2ccccc2)CCCC4)cc1`
y

---

system: M14 melanoma; assay: NCI-60 one-dose screen, 48 h; conditions: 10 µM unless noted
Compounds without any hit were thinned out: in the full panel of roughly 83,000, 20% have a hit. Activity calls are given as the source filed them. How the source made its calls: active means growth percent below 10; inactive means the rest.
Parameter call: string, one of Y = active, N = inactive

Answered examples (2):
Molecule	Assigned label
O=c1oc2ccccc2cc1-c1csc(N=Nc2c(O)[nH]c3ccc(Br)cc23)n1	N
CN1CCc2c(Sc3ccc(C(=O)NO)cc3)c3ccccc3n2C1	N

How was `CCCCCCCCCCCCSC1=CC(=O)C=CC1=O` classified in this test?
N

Try `Cc1ccc(N(CSc2ccc(Cl)cc2)CSc2ccc(Cl)cc2)cc1` next.
N

---

system: SF-268 CNS; test: NCI-60 one-dose screen, 48 h (100 = growth as untreated, 0 = no growth, -100 = all killed); conditions: 10 µM unless noted
This is part of a sample that, as a whole, favours compounds with a hit. Of some 83,000 tested, about 20% had one in any assay.
Readout name: growth (%)
Output spec: scalar in %, unitless text.

// below: answered compounds
Compound	growth [%]
COc1ccc(Nc2[nH]n(C3=Nc4ccccc4Sc4ccccc43)c(=O)c2C#N)cc1	67.2
COc1ccc(C2CC(c3cc(OC)c(OC)c(OC)c3)=NN2c2ccc(S(N)(=O)=O)cc2)cc1 (stereo unspecified)	72.9

Next up:
Endpoint output: growth of `CCC(=O)Nc1nnc(Cc2ccc(OC)c(OC)c2)s1` . Value?
-14

---

Collected growth values appear next to each entry.
tested on: SK-MEL-2 melanoma; experiment: NCI-60 one-dose screen, 48 h (100 = growth as untreated, 0 = no growth, -100 = all killed); conditions: 10 µM unless noted
The panel holds about 83,000 compounds, 20% with a hit somewhere; the sample as a whole holds those more often.
# number only, unit % dropped from output

Solved cases (4 shown):
Molecule	growth [%]
c1ccc2cc(Cn3c(-c4ccc5ccccc5c4)[n+](Cc4ccc5ccccc5c4)c4ccccc43)ccc2c1	-67.7
O=C1C(N2CCOCC2)=Cc2cccc3cccc1c23	110
CCCCc1ccc(NC(=O)C(F)(F)F)cc1	99
C=CC(=O)N1CC2(CC(n3nc(-c4ccc(Oc5ccccc5)cc4)c4c(N)ncnc43)C2)C1	28.6

Any idea what its growth is? The molecule is NC1=NC(c2ccccc2OS(=O)(=O)c2ccc(Br)cc2)n2c(nc3ccccc32)N1 (stereo not given)
101

---

system: SNB-19 CNS; experiment: NCI-60 one-dose screen, 48 h; details: 10 µM unless noted
About 83,000 compounds went through this panel and 20% of them were active in at least one assay; those are over-represented in the sample as a whole. The source made the active and inactive calls. How the source made its calls: active means growth percent below 10; inactive means the rest.
Reply using exactly one outcome from y (active), n (inactive)

Field: example entries. Status: answers known.
Molecule	Assigned label
CCCCCCCC/C=C\CCCCCCCCOc1cccc(CC(=O)NCC[N+]2(C)CCOCC2)c1	n
COc1cc(/C=C2\C(=O)N(c3c(Cl)cccc3Cl)c3ccccc32)cc(OC)c1O	n
Cc1ccc2c(N/N=C\c3ccco3)cc(C)nc2n1	n
CCCCC(CCCC)(S(=O)(=O)CC)S(=O)(=O)CC	n
O=C(NC1CC1)c1cc2n(n1)CC(c1ccccc1)N2 (configuration not stated)	n

What classification did `COC(=O)c1ccc(C(=O)Nc2ccccc2N)cc1` end up with in this test?
n

Can you check `O=C1C=CC(=O)N1CCCCCCCCCCN1C(=O)C=CC1=O` next?
n

---

Test system: SNB-19 CNS
Experiment: NCI-60 one-dose screen, 48 h (100 = growth as untreated, 0 = no growth, -100 = all killed)
Conditions: 10 µM unless noted
Experimental: Growth inhibition of the SNB-19 human tumor cell line is measured as a screen for anti-cancer activity. Cells are grown in 96 well plates and exposed to the test compound for 48 hours. Compounds are tested at a single concentration, which is 10^-5 M for most compounds. The reported endpoint is percent growth (GI% or GIPRCNT), where numbers from 0 - 100% represent growth inhibition, and numbers from -100% - 0 represent cell death. For example, a value of 40 represents 60% growth inhibition. […]
Compounds without any hit were thinned out: in the full panel of roughly 83,000, 20% have a hit.
Reported growth values for a set of molecules
Give your result in % as a bare value.

Below, 5 molecules whose answers are already recorded.
Molecule	Readout name	Numeric value
CCC(=O)Nc1nnc(Cc2ccc(OC)c(OC)c2)s1	growth	2.39
CCOC(=O)c1c(Cl)c2c(n1Cc1cc(OC)cc(OC)c1)-c1oncc1CCC2	growth	55.8
Oc1cccc(Nc2nc(-c3ccccn3)cs2)c1	growth	98.8
Cc1nc2cc(Nc3nc(Nc4ccc(F)cc4)nc(-c4ccc(Cl)cc4)n3)ccc2n1Cc1ccccc1	growth	83.4
Cc1nc2ccc(Cl)cc2n1C	growth	99.5

Endpoint output: growth of `Cc1ccc(-c2nnc(COc3ccc(-c4nnc(N)s4)cc3)o2)cc1` . Value?
86

Now try `CSC1=CC(=O)c2ccccc2C1=O` .
94.2

Next record, please: `N#C/C(=C\c1ccc[nH]1)c1cc2ccccc2[nH]1`
78.5

// same read-out, input: `Clc1ccc(Nc2ccnc(N3CCN(c4ccnc5cc(Cl)ccc45)CC3)n2)cc1`
58.2

Repeat for the following molecule: `C=CC(=O)N1CC2(CCC(n3nc(-c4ccc(Oc5ccccc5)cc4)c4c(N)ncnc43)CC2)C1`
-0.912

And then `COc1ccc(Cn2c(Br)c3c(c2-c2cc(OC)c(OC)c(OC)c2)CCc2sc(N)nc2-3)cc1` , what is it?
55.4

And what about the molecule `COc1cc(C(=O)/C=C/c2c(-c3cccs3)nc3sccn23)cc(OC)c1OC` ?
14.4

Also, `COc1ccc(-c2nc3sc(C)nn3c2-c2nc3cc(C)c(C)cc3[nH]2)cc1` please.
110

Please do the same for `COc1ccc(-n2ncc3c4nc(OC)c(S(=O)(=O)c5ccccc5)cc4ccc32)cc1` as well.
64.9

Check `COc1ccc(/C=N\N2CCOCC2)cc1OC1CCCC1` too.
95.8
